system: lung cancer cell line H520; assay: In vitro cell inhibition assay (crystal violet), lung cancer H520; format: cell-based, human; settings: H520, 0.25 μM
For each of the compounds below, state its Inhibition rate on human cancer cells.
Answers are plain numbers, in %.

Sample answers from the record:
COC=C(C(=O)OC)c1ccccc1COc1ccc2c(C)c(F)c(=O)oc2c1 :: 30
CCc1c(C)c2ccc(OCc3ccccc3C(=COC)C(=O)OC)cc2oc1=O :: 50

The record that follows has no Inhibition rate on human cancer cells shown yet.
# input Consider the compound shown here: N.N.[Cl][Pt][Cl] [Cisplatin, reference compound] What is its recorded Inhibition rate on human cancer cells?
# output 0

###

Kindly state Inhibition rate on human cancer cells for each of the entries shown.
tested on: lung cancer cell line H520; assay: In vitro cell inhibition assay (crystal violet), lung cancer H520; format: cell-based, human; details: H520, 0.25 μM
Answers are plain numbers, in %.

COC=C(C(=O)OC)c1ccccc1COc1ccc2c(-c3ccccc3)cc(=O)oc2c1 [28-52] :: 70
COC=C(C(=O)OC)c1ccccc1COc1ccc2c(-c3ccc(Cl)cc3)cc(=O)oc2c1 [28-29] :: 30
COC=C(C(=O)OC)c1ccccc1COc1ccc2c3c(c(=O)oc2c1C)CCCC3 [Compound 28-129] :: 85

Shifting focus to the compound that follows.
# input // lookup Inhibition rate on human cancer cells for COC=C(C(=O)OC)c1ccccc1COc1ccc2c3c(c(=O)oc2c1)CCCC3 [Compound 28-128]
# output 70

###

tested on: lung cancer cell line H460; assay: In vitro cell inhibition assay (crystal violet), lung cancer H460; assay type: cell-based, human; conditions: H460, 0.25 μM
I'd be grateful if you could share measured Inhibition rate on human cancer cells for these entries.
Number plus unit, in that order.

N.N.[Cl][Pt][Cl] [Cisplatin, reference compound] :: 0%
CCc1c(C)c2ccc(OCc3ccccc3C(=COC)C(=O)OC)cc2oc1=O :: 80%
COC=C(C(=O)OC)c1ccccc1COc1ccc2c(-c3ccccc3)cc(=O)oc2c1 :: 60%
COC=C(C(=O)OC)c1ccccc1COc1ccc2c3c(c(=O)oc2c1)CCCC3 :: 80%

Switching to the query record.
# input Given the entry CCCCc1c(C)c2ccc(OCc3ccccc3/C(=C\OC)C(=O)OC)cc2oc1=O , report its measured Inhibition rate on human cancer cells.
# output 95%

###

tested on: human leukemia HL-60 cells; assay: Proliferation inhibition of human leukemia HL-60 cells, MTT method; format: cell-based; settings: concentration 1 μM, 48 h incubation, OPTI-MEM medium
Values of Proliferation inhibitory effect on human leukemia HL-60 cell (%) greater than or equal to 30% map to Met; values below map to Not met.

Consider the worked cases shown below.
COC=C(C(=O)OC)c1ccccc1COc1ccc2c(C)cc(=O)oc2c1 :: Not met
COC=C(C(=O)OC)c1ccccc1COc1ccc2c(-c3ccc(F)cc3)cc(=O)oc2c1 :: Met
CCCc1c(CCC)c2ccc(OCc3ccccc3C(=COC)C(=O)OC)cc2oc1=O :: Not met
COC=C(C(=O)OC)c1ccccc1COc1ccc2c(C)cc(=O)oc2c1C :: Not met
COC=C(C(=O)OC)c1ccccc1COc1ccc2c(C)c(Cc3ccccc3)c(=O)oc2c1 :: Met

Please turn your attention to the following entry.
# input Please tell me: is the compound COC=C(C(=O)OC)c1ccccc1COc1ccc2c(C)c(F)c(=O)oc2c1 at or over 30% in terms of Proliferation inhibitory effect on human leukemia HL-60 cell (%)?
# output Met
